Target: T1, hIL-4Rα on cells (human, UniProt P24394 26-825)
T1 sequence: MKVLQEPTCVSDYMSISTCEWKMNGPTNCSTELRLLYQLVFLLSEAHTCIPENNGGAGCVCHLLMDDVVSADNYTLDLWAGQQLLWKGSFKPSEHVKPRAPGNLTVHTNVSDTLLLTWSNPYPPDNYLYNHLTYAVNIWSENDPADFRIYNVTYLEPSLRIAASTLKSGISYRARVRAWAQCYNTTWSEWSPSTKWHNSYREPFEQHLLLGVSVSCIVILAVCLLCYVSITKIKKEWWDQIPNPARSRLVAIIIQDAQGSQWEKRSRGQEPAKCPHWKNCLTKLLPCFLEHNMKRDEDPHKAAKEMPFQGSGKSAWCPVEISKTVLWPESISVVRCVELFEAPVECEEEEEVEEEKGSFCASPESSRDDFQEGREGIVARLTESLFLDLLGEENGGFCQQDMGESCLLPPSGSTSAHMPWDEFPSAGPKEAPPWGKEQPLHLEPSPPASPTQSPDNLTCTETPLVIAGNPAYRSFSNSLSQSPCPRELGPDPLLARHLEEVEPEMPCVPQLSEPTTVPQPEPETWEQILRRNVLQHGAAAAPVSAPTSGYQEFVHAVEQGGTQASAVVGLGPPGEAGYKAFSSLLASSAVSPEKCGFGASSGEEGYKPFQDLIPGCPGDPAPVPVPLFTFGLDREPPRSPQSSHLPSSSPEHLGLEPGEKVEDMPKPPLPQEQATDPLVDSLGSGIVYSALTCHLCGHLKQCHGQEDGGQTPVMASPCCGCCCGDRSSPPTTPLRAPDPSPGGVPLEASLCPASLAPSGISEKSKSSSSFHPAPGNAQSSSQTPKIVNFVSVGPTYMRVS
Assay: cell-based or functional assay
# Relative Inhibition of IL-13 induced TARC IC50 listing for each entry below
Metric: Relative Inhibition of IL-13 induced TARC IC50

binder="Construct 9 (mAb418) (antibody, IgG4, V domains shown, VH/VL only) VH: EVQLVESGGGLEQPGGSLRLSCAGSGFTFTDFAMTWVRQAPGKGLEWVSSISGSGGNIYYADSVKGRFTISRDNSKNTLYLQMNSLRAEDTAVYYCAKDRLSVTVRPRYYGLDVWGQGTTVTVSS VL: DIVMTQSPLSLPVTPGEPASISCRSSQSLLYSIGKNYVDWYLQKSGQSPQLLIYLGNNRATGVPDRFSGSGSGTDFTLKISRVEAEDVGFYYCMQALGSPYTFGQGTKLEIK" result="0.942 relative to dupilumab"
binder="Construct 33 (mAb450) (antibody, IgG4, V domains shown, VH/VL only) VH: EVQLVESGGGLEQPGGSLRLSCAGSGFTFRDFAMTWVRQAPGKGLEWVSSISGSGGNIYYADSVKGRFTISRDNSKNTLYLQMNSLRAEDTAVYYCAKDRVSITIRPRYYGLDVWGQGTTVTVSS VL: DIVMTQSPLSLPVTPGEPASISCTASQSLLYSIGYNYVDWYLQKSGQSPQLLIYLGSKRASGVPDRFSGSGSGTDFTLKISRVEAEDVGFYYCMQALGSPYTFGQGTKLEIK" result="1.07 relative to dupilumab"
binder="Construct 35 (mAb467) (antibody, IgG4, V domains shown, VH/VL only) VH: EVQLVESGGGLEQPGGSLRLSCAGSGFTFRTYAMTWVRQAPGKGLEWVSSISGSGGNTYYADSVKGRFTISRDNSKNTLYLQMNSLRAEDTAVYYCAKDRVSITIRPRYYGLDVWGQGTTVTVSS VL: DIVMTQSPLSLPVTPGEPASISCTSSQSLLYSIGKNYVDWYLQKSGQSPQLLIYEGNNRATGVPDRFSGSGSGTDFTLKISRVEAEDVGFYYCMQSLTSPYTFGQGTKLEIK" result="1.65 relative to dupilumab"
binder="Construct 44 (mAb485) (antibody, IgG4, V domains shown, VH/VL only) VH: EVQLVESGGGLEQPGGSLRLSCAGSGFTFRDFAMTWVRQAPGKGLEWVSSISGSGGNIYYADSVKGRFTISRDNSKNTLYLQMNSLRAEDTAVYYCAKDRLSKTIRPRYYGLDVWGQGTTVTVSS VL: DIVMTQSPLSLPVTPGEPASISCRSTQSLLYSIGKNYVDWYLQKSGQSPQLLIYEGNNRASGVPDRFSGSGSGTDFTLKISRVEAEDVGFYYCMQSLTSPYTFGQGTKLEIK" result="5.72 relative to dupilumab"

# credit: patent US20260193366A1
